ASSAY TEXT: Biodistribution of 99mTc(N)(X)(DTC)+ heterocomplexes in rats
Format: in vivo, male Spraque-Dawley rats (SD rats)
ASSAY CONDITIONS: 0 min after injection
ASSAY READOUT: Intestine % dose/g (% dose/g)

[[record]]
compound = "CCCN1CC[P+](c2ccccc2)(c2ccccc2)[99Tc-2]2(#[N])([NH]N(C)C(SC)=[S+]2)[P+](c2ccccc2)(c2ccccc2)CC1 [^99mTc(N)(PNP1)(DTC)^+]"
unit_of_measure = "% dose/g"
recorded_result = 0.418


a = COCCC[P]1(CCCOC)CCN(CCOC)CC[P](CCCOC)(CCCOC)[99Tc+]12(#[N])[NH]N(C)C(SC)=[S]2 [^99mTc(N)(PNP3)(DTC)^+]
b = CSC1=[S+][99Tc-2]2(#[N])([NH]N1C)[P+](c1ccccc1)(c1ccccc1)CCOCC[P+]2(c1ccccc1)c1ccccc1 [^99mTc(N)(POP)(DTC)^+]
c = COCCN1CC[P+](c2ccccc2)(c2ccccc2)[99Tc-2]2(#[N])([NH]N(C)C(SC)=[S+]2)[P+](c2ccccc2)(c2ccccc2)CC1 [^99mTc(N)(PNP2)(DTC)^+]
(Q) List these items ordered by Intestine % dose/g, big to small. Rank the items, then write their labels in that order.
(A) a, c, b
(a: 2.578 % dose/g, c: 0.906 % dose/g, b: 0.482 % dose/g)

###

ASSAY TEXT: Biodistribution of 99mTc(N)(X)(DTC)+ heterocomplexes in rats
Format: in vivo, male Spraque-Dawley rats (SD rats)
ASSAY CONDITIONS: 2 hr after injection
Experimental: The biodistribution of a ^99mTc nitride heterocomplex represented by the general formula ^99mTc(N)(X)(Y) was investigated as follows: ^99mTc nitride heterocomplexes were synthesized using DTC as a bidentate ligand Y and each of the diphosphine compounds X described below, and the biodistribution in rats of each heterocomplex was investigated. […] The biodistribution was measured using male Spraque-Dawley rats (SD rats) weighing 200 to 250 g. […]
ASSAY READOUT: Kidney % dose/g (% dose/g)

[[record]]
molecule = "CCCN1CC[P+](c2ccccc2)(c2ccccc2)[99Tc-2]2(#[N])([NH]N(C)C(SC)=[S+]2)[P+](c2ccccc2)(c2ccccc2)CC1 [^99mTc(N)(PNP1)(DTC)^+]"
recorded_result = 5.327

[[record]]
molecule = "CSC1=[S+][99Tc-2]2(#[N])([NH]N1C)[P+](c1ccccc1)(c1ccccc1)CCOCC[P+]2(c1ccccc1)c1ccccc1 [^99mTc(N)(POP)(DTC)^+]"
recorded_result = 5.145


I = COCCN1CC[P+](c2ccccc2)(c2ccccc2)[99Tc-2]2(#[N])([NH]N(C)C(SC)=[S+]2)[P+](c2ccccc2)(c2ccccc2)CC1 [^99mTc(N)(PNP2)(DTC)^+]
II = COCCC[P]1(CCCOC)CCN(CCOC)CC[P](CCCOC)(CCCOC)[99Tc+]12(#[N])[NH]N(C)C(SC)=[S]2 [^99mTc(N)(PNP3)(DTC)^+]
(Q) Which of the two gives a bigger number for Kidney % dose/g: I or II ? Use the label to indicate which entry you chose.
(A) I
(I: 6.799 % dose/g, II: 3.139 % dose/g)

###

ASSAY TEXT: Biodistribution of 99mTc(N)(X)(DTC)+ heterocomplexes in rats
Format: in vivo, male Spraque-Dawley rats (SD rats)
ASSAY CONDITIONS: 2 min after injection
ASSAY READOUT: Blood % dose/g (% dose/g)

[[record]]
compound = "CCCN1CC[P+](c2ccccc2)(c2ccccc2)[99Tc-2]2(#[N])([NH]N(C)C(SC)=[S+]2)[P+](c2ccccc2)(c2ccccc2)CC1 [^99mTc(N)(PNP1)(DTC)^+]"
assay_readout = "Blood % dose/g"
recorded_result = 1.062

[[record]]
compound = "CSC1=[S+][99Tc-2]2(#[N])([NH]N1C)[P+](c1ccccc1)(c1ccccc1)CCOCC[P+]2(c1ccccc1)c1ccccc1 [^99mTc(N)(POP)(DTC)^+]"
assay_readout = "Blood % dose/g"
recorded_result = 1.254


P = COCCN1CC[P+](c2ccccc2)(c2ccccc2)[99Tc-2]2(#[N])([NH]N(C)C(SC)=[S+]2)[P+](c2ccccc2)(c2ccccc2)CC1 [^99mTc(N)(PNP2)(DTC)^+]
Q = COCCC[P]1(CCCOC)CCN(CCOC)CC[P](CCCOC)(CCCOC)[99Tc+]12(#[N])[NH]N(C)C(SC)=[S]2 [^99mTc(N)(PNP3)(DTC)^+]
(Q) Which of the two gives a bigger number for Blood % dose/g: P or Q ? Use the label to indicate which entry you chose.
(A) P
(P: 1.025 % dose/g, Q: 0.421 % dose/g)

###

ASSAY TEXT: Biodistribution of 99mTc(N)(X)(DTC)+ heterocomplexes in rats
Format: in vivo, male Spraque-Dawley rats (SD rats)
ASSAY CONDITIONS: 2 hr after injection
ASSAY READOUT: Muscle % dose/g (% dose/g)

[[record]]
compound = "COCCN1CC[P+](c2ccccc2)(c2ccccc2)[99Tc-2]2(#[N])([NH]N(C)C(SC)=[S+]2)[P+](c2ccccc2)(c2ccccc2)CC1 [^99mTc(N)(PNP2)(DTC)^+]"
assay_readout = "Muscle % dose/g"
unit_of_measure = "% dose/g"
recorded_result = 0.102


P = CSC1=[S+][99Tc-2]2(#[N])([NH]N1C)[P+](c1ccccc1)(c1ccccc1)CCOCC[P+]2(c1ccccc1)c1ccccc1 [^99mTc(N)(POP)(DTC)^+]
Q = COCCC[P]1(CCCOC)CCN(CCOC)CC[P](CCCOC)(CCCOC)[99Tc+]12(#[N])[NH]N(C)C(SC)=[S]2 [^99mTc(N)(PNP3)(DTC)^+]
R = CCCN1CC[P+](c2ccccc2)(c2ccccc2)[99Tc-2]2(#[N])([NH]N(C)C(SC)=[S+]2)[P+](c2ccccc2)(c2ccccc2)CC1 [^99mTc(N)(PNP1)(DTC)^+]
(Q) Form: Sort by [Muscle % dose/g] Order [ ascending ] Rank the items, then write their labels in that order.
(A) P, R, Q
(P: 0.066 % dose/g, R: 0.111 % dose/g, Q: 0.268 % dose/g)

###

ASSAY TEXT: Biodistribution of 99mTc(N)(X)(DTC)+ heterocomplexes in rats
Format: in vivo, male Spraque-Dawley rats (SD rats)
ASSAY CONDITIONS: 2 min after injection
ASSAY READOUT: Spleen % dose/g (% dose/g)

Below: 2 compounds and their reported Spleen % dose/g.
[[record]]
compound = "CCCN1CC[P+](c2ccccc2)(c2ccccc2)[99Tc-2]2(#[N])([NH]N(C)C(SC)=[S+]2)[P+](c2ccccc2)(c2ccccc2)CC1 [^99mTc(N)(PNP1)(DTC)^+]"
recorded_result = 4.459

[[record]]
compound = "CSC1=[S+][99Tc-2]2(#[N])([NH]N1C)[P+](c1ccccc1)(c1ccccc1)CCOCC[P+]2(c1ccccc1)c1ccccc1 [^99mTc(N)(POP)(DTC)^+]"
recorded_result = 3.587


a = COCCN1CC[P+](c2ccccc2)(c2ccccc2)[99Tc-2]2(#[N])([NH]N(C)C(SC)=[S+]2)[P+](c2ccccc2)(c2ccccc2)CC1 [^99mTc(N)(PNP2)(DTC)^+]
b = COCCC[P]1(CCCOC)CCN(CCOC)CC[P](CCCOC)(CCCOC)[99Tc+]12(#[N])[NH]N(C)C(SC)=[S]2 [^99mTc(N)(PNP3)(DTC)^+]
(Q) Which of the two gives a bigger number for Spleen % dose/g: a or b ? Use the label to indicate which entry you chose.
(A) a
(a: 5.018 % dose/g, b: 1.215 % dose/g)

###

ASSAY TEXT: Biodistribution of 99mTc(N)(X)(DTC)+ heterocomplexes in rats
Assay type: in vivo, male Spraque-Dawley rats (SD rats)
ASSAY CONDITIONS: 10 min after injection
ASSAY READOUT: Stomach % dose/g (% dose/g)

1 = CSC1=[S+][99Tc-2]2(#[N])([NH]N1C)[P+](c1ccccc1)(c1ccccc1)CCOCC[P+]2(c1ccccc1)c1ccccc1 [^99mTc(N)(POP)(DTC)^+]
2 = CCCN1CC[P+](c2ccccc2)(c2ccccc2)[99Tc-2]2(#[N])([NH]N(C)C(SC)=[S+]2)[P+](c2ccccc2)(c2ccccc2)CC1 [^99mTc(N)(PNP1)(DTC)^+]
(Q) Which of the two gives a bigger number for Stomach % dose/g: 1 or 2 ? Use the label to indicate which entry you chose.
(A) 1

a = COCCN1CC[P+](c2ccccc2)(c2ccccc2)[99Tc-2]2(#[N])([NH]N(C)C(SC)=[S+]2)[P+](c2ccccc2)(c2ccccc2)CC1 [^99mTc(N)(PNP2)(DTC)^+]
b = COCCC[P]1(CCCOC)CCN(CCOC)CC[P](CCCOC)(CCCOC)[99Tc+]12(#[N])[NH]N(C)C(SC)=[S]2 [^99mTc(N)(PNP3)(DTC)^+]
(Q) // task: argmin of Stomach % dose/g over [ a , b ] Use the label to indicate which entry you chose.
(A) a
(a: 0.517 % dose/g, b: 0.852 % dose/g)
